# assayed target: 5-hydroxytryptamine receptor 2C (Homo sapiens, UniProt P28335)
# Sequence (P28335 whole entry): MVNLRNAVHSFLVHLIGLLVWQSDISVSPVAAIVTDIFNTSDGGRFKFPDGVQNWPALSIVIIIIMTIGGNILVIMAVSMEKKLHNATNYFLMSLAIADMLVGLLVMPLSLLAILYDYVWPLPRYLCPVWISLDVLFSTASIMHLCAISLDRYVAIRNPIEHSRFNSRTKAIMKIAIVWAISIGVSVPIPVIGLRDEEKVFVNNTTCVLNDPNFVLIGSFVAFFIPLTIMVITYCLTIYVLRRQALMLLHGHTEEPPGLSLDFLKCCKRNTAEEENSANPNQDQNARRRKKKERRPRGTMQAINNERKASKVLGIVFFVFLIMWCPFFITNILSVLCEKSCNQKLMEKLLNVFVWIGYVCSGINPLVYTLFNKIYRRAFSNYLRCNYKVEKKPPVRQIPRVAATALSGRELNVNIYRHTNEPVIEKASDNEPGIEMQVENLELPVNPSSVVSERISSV
Listing of pKi toward 5-hydroxytryptamine receptor 2C (Homo sapiens, UniProt P28335), each taken from a published source.
The quantity pKi is defined as the negative base-10 logarithm of the molar concentration.

For orientation, consider the following solved cases.
CNCc1ccc(Cl)c(-c2ccccc2OC)c1    6.70
O=C1CCN1c1ccc2on(C[C@@H]3C[C@H]4c5ccccc5Oc5ccc(Br)cc5[C@H]4O3)c2c1    6.45
CN(C)CC1C[C@@H]2c3ccccc3Cc3ccccc3[C@H]2O1 (some centres not stated)    8.17

pKi on 5-hydroxytryptamine receptor 2C (Homo sapiens, UniProt P28335) for CCCCNCc1ccc(Cl)c(-c2ccccc2OC)c1 is 6.51

pKi on 5-hydroxytryptamine receptor 2C (Homo sapiens, UniProt P28335) for O=C1CC(CN2CCC(c3noc4cc(F)ccc34)CC2)Cc2ncncc21 (configuration not stated) is 6.30

pKi on 5-hydroxytryptamine receptor 2C (Homo sapiens, UniProt P28335) for COc1ccc(CCCN2CCC(CCC(=O)c3cc(Cl)c(N)c4c3OCCO4)CC2)cc1OC is 5.80

pKi on 5-hydroxytryptamine receptor 2C (Homo sapiens, UniProt P28335) for O=C(CN1CCC(S(=O)(=O)c2ccccc2)CC1)c1ccc(F)cc1F is 6.89

pKi on 5-hydroxytryptamine receptor 2C (Homo sapiens, UniProt P28335) for C=CCc1cc(CCNC(C)=O)c2cc(OC)ccc2c1 is 6.84

pKi on 5-hydroxytryptamine receptor 2C (Homo sapiens, UniProt P28335) for [O-][S+](c1ccccc1)c1ccc(/C=C/c2ccc(F)cc2)nc1 (configuration not stated) is 6.70

pKi on 5-hydroxytryptamine receptor 2C (Homo sapiens, UniProt P28335) for Cl.NCCC(=O)Nc1ccc2[nH]nc(S(=O)(=O)c3cccc4ccccc34)c2c1 is 6.24

pKi on 5-hydroxytryptamine receptor 2C (Homo sapiens, UniProt P28335) for O=C(Nc1ccccc1)N1OCC2CSc3ccc(F)cc3C21 (configuration not stated) is 5.29

---

# assayed target: 5-hydroxytryptamine receptor 2C (Homo sapiens)
# Sequence (P28335 whole entry): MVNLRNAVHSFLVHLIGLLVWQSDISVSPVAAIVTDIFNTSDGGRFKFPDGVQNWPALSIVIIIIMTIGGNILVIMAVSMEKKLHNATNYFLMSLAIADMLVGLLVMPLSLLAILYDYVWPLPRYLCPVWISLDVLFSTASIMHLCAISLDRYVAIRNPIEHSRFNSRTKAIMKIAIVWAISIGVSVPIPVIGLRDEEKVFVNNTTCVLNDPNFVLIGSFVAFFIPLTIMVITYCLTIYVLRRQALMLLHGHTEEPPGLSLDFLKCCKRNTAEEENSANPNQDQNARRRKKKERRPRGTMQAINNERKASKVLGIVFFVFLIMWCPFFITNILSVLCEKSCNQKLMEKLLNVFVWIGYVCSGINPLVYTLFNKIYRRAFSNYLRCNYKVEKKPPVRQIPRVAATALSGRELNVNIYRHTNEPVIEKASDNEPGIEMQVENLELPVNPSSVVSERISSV
Listing of Ki toward 5-hydroxytryptamine receptor 2C (Homo sapiens), each taken from a published source.
With a cut-off of 20 nM, any Ki strictly below it is called 1; any Ki meeting it or above is called 0.

Below are worked cases with known answers.
CN1CCC(=C2c3ccccc3C=Cc3ccccc32)CC1    1
COc1ccc(N2CC=C(c3ccc(Cl)c(Cl)c3)C2=O)cc1OCCN1CCC(C)(C)CC1    1
Cc1nc2ccc(NC(=O)Nc3ccnc4ccccc34)cc2o1    0
COc1ccc(C2=C(C)CN(c3ccc(Cl)cc3)C2=O)cc1OCCN1CCCCC1    0
c1ccc(Cc2cc3c(nn2)CCNCC3)cc1    0

(Q) # TODO verify Ki < 20 nM strictly for this molecule: CC(C)N1CCN2c3c(cccc31)[C@@H]1CN(CCCC(=O)c3ccc(F)cc3)CC[C@@H]12
(A) 0

(Q) # TODO verify Ki < 20 nM strictly for this molecule: O=S(=O)(c1ccc(/C=C/c2ccc(F)cc2)nc1)c1ccccc1F
(A) 0

(Q) # TODO verify Ki < 20 nM strictly for this molecule: Cc1cccc(N2CCN(CCCCNC(=O)c3ccccn3)CC2)n1
(A) 0

(Q) # TODO verify Ki < 20 nM strictly for this molecule: O=S(=O)(c1cccc(F)c1)C1(F)CCN(CCc2ccc(F)cc2F)CC1
(A) 0

(Q) # TODO verify Ki < 20 nM strictly for this molecule: O=C(/C=C/c1ccc(Cl)c(Cl)c1)NCCCCCN1CCC(c2c[nH]c3ccc(O)cc23)CC1
(A) 0

(Q) # TODO verify Ki < 20 nM strictly for this molecule: CN(C)C[C@H]1C[C@H]2c3ccccc3Oc3ccc(Br)cc3[C@H]2O1
(A) 0

(Q) # TODO verify Ki < 20 nM strictly for this molecule: OCCN1CCN(CC2C[C@@H]3c4ccccc4Cc4ccccc4[C@H]3O2)CC1 (stereo partly specified)
(A) 0

(Q) # TODO verify Ki < 20 nM strictly for this molecule: COc1ccc(Cl)cc1C(=O)CCCCN1CCC2(CC1)NC(=O)NC2=O
(A) 1

(Q) # TODO verify Ki < 20 nM strictly for this molecule: Cn1cc(Br)c(C(=O)N2CCN(CCc3ccccc3)CC2)n1
(A) 0

(Q) # TODO verify Ki < 20 nM strictly for this molecule: COc1cccc2c1CCC[C@H]2CN(C)CCc1ccc2ccoc2c1
(A) 0

(Q) # TODO verify Ki < 20 nM strictly for this molecule: O=S(=O)(c1ccc(F)cc1)c1ccc(/C=C/c2ccc(F)cc2)cn1
(A) 0

(Q) # TODO verify Ki < 20 nM strictly for this molecule: Cc1cc2c(cc1Br)N(C(=O)Nc1ccc(Oc3cccnc3C)nc1)CC2
(A) 1

(Q) # TODO verify Ki < 20 nM strictly for this molecule: Cc1cc2c(cc1Cl)N(C(=O)Nc1ccc(OCc3nccs3)nc1)CC2
(A) 1

(Q) # TODO verify Ki < 20 nM strictly for this molecule: CNc1cc(NS(=O)(=O)c2ccc(N)cc2)nc(NC)n1
(A) 0

(Q) # TODO verify Ki < 20 nM strictly for this molecule: O=C(c1nn2ccccc2c1Br)N1CCN(CCc2ccc(F)cc2F)CC1
(A) 0

---

Listing of pKi toward the protein given by its sequence, each taken from a published source.
Target sequence: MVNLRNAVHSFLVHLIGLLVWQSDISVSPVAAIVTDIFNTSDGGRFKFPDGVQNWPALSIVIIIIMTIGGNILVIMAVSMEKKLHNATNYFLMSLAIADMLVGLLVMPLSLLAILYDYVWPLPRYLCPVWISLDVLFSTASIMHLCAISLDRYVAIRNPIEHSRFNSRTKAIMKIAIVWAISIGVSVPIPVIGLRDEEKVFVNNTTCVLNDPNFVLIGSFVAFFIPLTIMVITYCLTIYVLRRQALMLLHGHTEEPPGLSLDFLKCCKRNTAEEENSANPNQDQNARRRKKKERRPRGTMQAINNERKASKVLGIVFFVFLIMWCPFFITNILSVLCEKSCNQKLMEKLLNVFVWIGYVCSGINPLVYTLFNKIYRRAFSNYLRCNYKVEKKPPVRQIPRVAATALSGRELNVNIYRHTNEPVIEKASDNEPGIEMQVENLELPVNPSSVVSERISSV
pKi: −log10 of the molar value.
// label = satisfied if pKi is not less than 8, otherwise not satisfied

Below are worked cases with known answers.
Nc1cc(F)ccc1C(=O)CCCN1CC[C@H]2[C@@H](C1)c1cccc3c1N2CCCS3 (stereo in doubt; (+)-6)    not satisfied
COc1ccc(N2CCN(c3cccc(F)c3)C2=O)cc1OCCN(C)C    satisfied
O=C1CC(CN2CCC(C(=O)c3ccc(F)cc3)CC2)Cc2ccccc21 (stereo in doubt; (-)-7c)    not satisfied
COc1ccc(CCN2CCN(C(=O)c3nn(C)cc3Br)CC2)cc1    not satisfied
COc1ccc(N2CCN(c3ccccc3)C2=O)cc1OCCN1CCCCC1    satisfied
O=C1C[C@H](CN2CCC(c3noc4cc(F)ccc34)CC2)Cc2occc21    not satisfied

Please find the next compound below.
(Q) pKi >= 8 for O=C1CC(CN2CCC(C(=O)c3ccc(F)cc3)CC2)Cc2oc(-c3ccccc3)cc21 (centres undefined) ?
(A) not satisfied
